Molecular target: human recombinant COX-1 (Homo sapiens, UniProt P23219)
Construct: expressed in transfected cells; host or cells: Cos-A2 cells, stably transfected
Sequence (P23219 24-599): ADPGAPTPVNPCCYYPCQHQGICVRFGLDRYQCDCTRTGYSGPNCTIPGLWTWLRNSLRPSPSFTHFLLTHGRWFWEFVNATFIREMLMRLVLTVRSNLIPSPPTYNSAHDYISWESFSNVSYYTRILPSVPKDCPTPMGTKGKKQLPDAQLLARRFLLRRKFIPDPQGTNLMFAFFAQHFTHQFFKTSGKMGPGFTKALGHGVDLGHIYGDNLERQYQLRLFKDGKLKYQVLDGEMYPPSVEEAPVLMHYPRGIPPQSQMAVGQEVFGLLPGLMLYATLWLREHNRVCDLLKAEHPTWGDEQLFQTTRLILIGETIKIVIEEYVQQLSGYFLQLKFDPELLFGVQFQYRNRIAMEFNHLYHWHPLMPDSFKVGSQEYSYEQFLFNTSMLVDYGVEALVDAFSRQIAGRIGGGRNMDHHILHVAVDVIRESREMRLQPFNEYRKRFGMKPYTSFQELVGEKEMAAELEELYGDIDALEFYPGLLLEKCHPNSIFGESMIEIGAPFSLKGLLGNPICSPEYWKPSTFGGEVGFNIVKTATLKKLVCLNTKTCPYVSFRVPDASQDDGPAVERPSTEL
Assay: COX-1 inhibition, COS cell assay
Format: cell-based
Conditions: COS, read-out: Inhibition of COX Enzymes in COS Cell Assays, COX-1 % inhibition; 1 μM
endpointLabel: inhibition at 1 µM (%)
Express it in %; write the number only.

O=C1c2ccccc2C(S(=O)(=O)c2ccccc2)C(=O)N1Cc1ccccc1 (centres unmarked) [Example 12]	61
O=C1c2ccccc2C(S(=O)(=O)CC(F)(F)F)C(=O)N1Cc1ccccc1 (centres unmarked) [Example 11]	0
O=C1c2ccccc2C(S(=O)(=O)c2cccs2)C(=O)N1Cc1ccccc1 (centres unmarked) [Example 21]	67
CC(C)S(=O)(=O)C1C(=O)N(Cc2ccc(Cl)cc2)C(=O)c2ccccc21 (centres unmarked) [Example 7]	46

From here, focus on the item given below.
Returns the measured inhibition at 1 µM for the input compound. Input: CC(C)S(=O)(=O)C1C(=O)N(Cc2ccccc2F)C(=O)c2ccccc21 (centres unmarked) [Example 2]
33

---

# reported IC50; entries follow
Target: human recombinant COX-1 (Homo sapiens, UniProt P23219)
Test: COX-1 inhibition, COS cell assay
Conditions: COS cells, COX-1; read-out: Inhibition of COX Enzymes in COS Cell Assays, COX-1 IC50

CC(C)S(=O)(=O)C1C(=O)N(Cc2ccc(F)c(F)c2)C(=O)c2ccccc21 (centres unmarked)	0.57 µM

From here, focus on the item given below.
Returns the measured IC50 for the input compound. Input: CC(C)S(=O)(=O)C1C(=O)N(Cc2ccccc2)C(=O)c2ccc(Cl)cc21 (centres unmarked)
1.4 µM

---

Target: Human cyclooxygenase 2 (COX-2) (Homo sapiens)
Sequence (P35354 18-604): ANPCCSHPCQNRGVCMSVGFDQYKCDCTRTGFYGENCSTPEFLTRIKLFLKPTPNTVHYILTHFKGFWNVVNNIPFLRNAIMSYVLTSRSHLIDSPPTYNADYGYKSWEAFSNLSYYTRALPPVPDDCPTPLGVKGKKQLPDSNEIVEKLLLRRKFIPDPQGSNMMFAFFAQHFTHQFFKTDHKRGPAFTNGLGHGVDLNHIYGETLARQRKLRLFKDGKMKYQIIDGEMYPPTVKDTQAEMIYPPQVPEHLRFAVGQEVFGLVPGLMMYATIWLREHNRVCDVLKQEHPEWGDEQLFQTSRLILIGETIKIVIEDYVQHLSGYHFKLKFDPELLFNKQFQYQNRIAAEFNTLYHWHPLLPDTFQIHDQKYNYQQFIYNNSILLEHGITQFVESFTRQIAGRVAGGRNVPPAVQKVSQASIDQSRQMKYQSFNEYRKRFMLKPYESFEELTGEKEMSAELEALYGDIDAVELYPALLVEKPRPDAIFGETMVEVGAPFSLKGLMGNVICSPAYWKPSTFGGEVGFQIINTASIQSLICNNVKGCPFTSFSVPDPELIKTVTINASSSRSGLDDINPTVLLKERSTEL
Assay: COX-2 inhibition, microsomal assay
Settings: 20 min, read-out: % Inhibition of COX Enzymes in Microsomal Assays, COX-2
endpointLabel: inhibition at 0.1 µg/mL (%)
Express it in %; write the number only.

CCCCS(=O)(=O)C1C(=O)N(Cc2ccccc2)C(=O)c2ccccc21 (stereo not shown)	0
O=C1c2ccccc2C(S(=O)(=O)c2cccs2)C(=O)N1Cc1ccccc1 (stereo not shown)	12
CC(C)(C)c1ccc(S(=O)(=O)C2C(=O)N(Cc3ccccc3)C(=O)c3ccccc32)cc1 (stereo not shown)	20
O=C1c2ccccc2C(S(=O)(=O)c2ccc(F)cc2)C(=O)N1Cc1ccccc1 (stereo not shown)	33
O=C1c2ccccc2C(S(=O)(=O)c2ccc([N+](=O)[O-])cc2)C(=O)N1Cc1ccccc1 (stereo not shown)	20

Returns the measured inhibition at 0.1 µg/mL for the input compound. Input: CC(C)S(=O)(=O)C1C(=O)N(Cc2ccccc2)C(=O)c2ccccc21 (stereo not shown)
27

Follow-up entry: CC(C)S(=O)(=O)C1C(=O)N(Cc2ccc(F)cc2)C(=O)c2ccccc21 (stereo not shown)
-1

Follow-up entry: CC(C)S(=O)(=O)C1C(=O)N(Cc2ccccc2F)C(=O)c2ccccc21 (stereo not shown)
10

Follow-up entry: CCCS(=O)(=O)C1C(=O)N(Cc2ccccc2)C(=O)c2ccccc21 (stereo not shown)
-6

Follow-up entry: CC(C)S(=O)(=O)C1C(=O)N(Cc2ccc(Cl)cc2)C(=O)c2ccccc21 (stereo not shown)
3

Follow-up entry: O=C1c2ccccc2C(S(=O)(=O)c2ccc3ccccc3c2)C(=O)N1Cc1ccccc1 (stereo not shown)
-29

Follow-up entry: Cc1ccc(S(=O)(=O)C2C(=O)N(Cc3ccccc3)C(=O)c3ccccc32)cc1 (stereo not shown)
-13

Follow-up entry: CC(C)S(=O)(=O)C1C(=O)N(Cc2cccc(Cl)c2)C(=O)c2ccccc21 (stereo not shown)
10

Follow-up entry: CC(C)S(=O)(=O)C1C(=O)N(Cc2ccc(F)c(F)c2)C(=O)c2ccc(Cl)cc21 (stereo not shown)
-3

Follow-up entry: O=C1c2ccccc2C(S(=O)(=O)CC(F)(F)F)C(=O)N1Cc1ccccc1 (stereo not shown)
23

---

Target: Human cyclooxygenase 1 (COX-1) (Homo sapiens)
Assay: COX-1 inhibition, microsomal assay
Details: 20 min, read-out: % Inhibition of COX Enzymes in Microsomal Assays, COX-1
# reported inhibition at 1 µg/mL; entries follow
Express it in %; write the number only.

Returns the measured inhibition at 1 µg/mL for the input molecule. Input: O=C1c2ccccc2C(S(=O)(=O)c2ccc3ccccc3c2)C(=O)N1Cc1ccccc1 (centres unmarked)
24

Follow-up entry: O=C1c2ccccc2C(S(=O)(=O)c2ccc(Br)cc2)C(=O)N1Cc1ccccc1 (centres unmarked)
74

Follow-up entry: COc1ccc(S(=O)(=O)C2C(=O)N(Cc3ccccc3)C(=O)c3ccccc32)cc1 (centres unmarked)
81

Follow-up entry: O=C1c2ccccc2C(S(=O)(=O)c2ccc(Cl)cc2)C(=O)N1Cc1ccccc1 (centres unmarked)
71

Follow-up entry: O=C1c2ccccc2C(S(=O)(=O)CC(F)(F)F)C(=O)N1Cc1ccccc1 (centres unmarked)
21

Follow-up entry: O=C1c2ccccc2C(S(=O)(=O)c2ccc([N+](=O)[O-])cc2)C(=O)N1Cc1ccccc1 (centres unmarked)
41

Follow-up entry: CC(C)S(=O)(=O)C1C(=O)N(Cc2ccccc2)C(=O)c2ccccc21 (centres unmarked)
11

Follow-up entry: Cc1ccc(S(=O)(=O)C2C(=O)N(Cc3ccccc3)C(=O)c3ccccc32)cc1 (centres unmarked)
93

---

Molecular target: Human cyclooxygenase 2 (COX-2) (Homo sapiens)
Sequence (P35354 18-604): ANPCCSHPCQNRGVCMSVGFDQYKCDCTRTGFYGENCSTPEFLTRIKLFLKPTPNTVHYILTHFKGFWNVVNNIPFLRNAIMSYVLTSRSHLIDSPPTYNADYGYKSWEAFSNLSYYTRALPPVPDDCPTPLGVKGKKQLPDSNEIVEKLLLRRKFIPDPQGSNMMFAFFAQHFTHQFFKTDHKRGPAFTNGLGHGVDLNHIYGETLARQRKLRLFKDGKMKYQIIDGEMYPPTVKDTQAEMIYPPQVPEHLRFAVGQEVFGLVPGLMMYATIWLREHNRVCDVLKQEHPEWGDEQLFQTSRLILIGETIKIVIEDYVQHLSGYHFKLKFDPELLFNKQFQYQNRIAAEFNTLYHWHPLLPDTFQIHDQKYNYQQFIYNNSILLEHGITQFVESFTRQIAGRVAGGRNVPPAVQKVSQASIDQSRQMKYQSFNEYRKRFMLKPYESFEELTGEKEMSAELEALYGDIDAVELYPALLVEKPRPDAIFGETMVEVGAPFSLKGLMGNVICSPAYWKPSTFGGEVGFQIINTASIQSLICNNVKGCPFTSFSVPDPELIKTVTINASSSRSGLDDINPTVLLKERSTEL
Experiment: COX-2 inhibition, microsomal assay
Conditions: 20 min, read-out: % Inhibition of COX Enzymes in Microsomal Assays, COX-2
endpointLabel: inhibition at 1 µg/mL
Field: value (include unit after the number)

Returns the measured inhibition at 1 µg/mL for the input compound. Input: O=C1c2ccccc2C(S(=O)(=O)CC(F)(F)F)C(=O)N1Cc1ccccc1 (stereo not drawn) [Example 11]
32%

Follow-up entry: Cc1ccc(S(=O)(=O)C2C(=O)N(Cc3ccccc3)C(=O)c3ccccc32)cc1 (stereo not drawn) [Example 14]
63%

Follow-up entry: CC(C)S(=O)(=O)C1C(=O)N(Cc2ccccc2)C(=O)c2ccccc21 (stereo not drawn) [Example 5]
56%

---

# reported inhibition at 1 µg/mL; entries follow
Target: Human cyclooxygenase 1 (COX-1) (Homo sapiens, UniProt P23219)
Sequence (P23219 24-599): as the sequence (P23219 24-599) above
Experiment: COX-1 inhibition, microsomal assay
Settings: 20 min, read-out: % Inhibition of COX Enzymes in Microsomal Assays, COX-1
Express it in %; write the number only.

CC(C)S(=O)(=O)C1C(=O)N(Cc2ccc(F)c(F)c2)C(=O)c2ccccc21 (stereo not shown)	17
CCCCS(=O)(=O)C1C(=O)N(Cc2ccccc2)C(=O)c2ccccc21 (stereo not shown)	15
CC(C)(C)c1ccc(S(=O)(=O)C2C(=O)N(Cc3ccccc3)C(=O)c3ccccc32)cc1 (stereo not shown)	20

From here, focus on the item given below.
Returns the measured inhibition at 1 µg/mL for the input molecule. Input: O=C1c2ccccc2C(S(=O)(=O)c2cccs2)C(=O)N1Cc1ccccc1 (stereo not shown)
14
